# Test target: dihydroceramide desaturase-1 (DES1) (Gallus gallus, UniProt Q5F3C1)
# Sequence (Q5F3C1 1-323): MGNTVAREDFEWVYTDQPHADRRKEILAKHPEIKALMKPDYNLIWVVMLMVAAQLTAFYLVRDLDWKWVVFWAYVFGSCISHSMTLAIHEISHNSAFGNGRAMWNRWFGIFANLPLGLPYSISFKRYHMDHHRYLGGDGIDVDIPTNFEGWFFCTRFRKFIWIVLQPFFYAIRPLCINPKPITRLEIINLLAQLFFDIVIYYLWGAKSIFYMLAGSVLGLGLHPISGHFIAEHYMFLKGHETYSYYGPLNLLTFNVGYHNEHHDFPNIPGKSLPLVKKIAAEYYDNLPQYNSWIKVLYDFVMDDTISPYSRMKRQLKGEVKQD

{"columns": ["Molecule", "Test target", "Ki (µM)"],
 "data": [
  ["CC1=C(/C=C/C(C)=C/C=C/C(C)=C/C(=O)Nc2ccc(O)cc2)C(C)(C)CCC1 [4-HPR, fenretinide]", "dihydroceramide desaturase-1 (DES1) (Gallus gallus, UniProt Q5F3C1)", 8.5]
]}
